The measured values listed here are drawn from patent US7056679B2.

- studyTarget: DGI-2 (Homo sapiens, UniProt Q15004)
- Construct: encompassed the entire DGI-2 open reading frame (ORF); His-tag of vector pIVEX2.3-MCS (inferred from the vector and from the reverse primer lacking a stop codon); made in house; host or cells: cell-free in vitro translation (Rapid Translation System RTS, Roche; E. coli lysate)
- Sequence (Q15004 1-111): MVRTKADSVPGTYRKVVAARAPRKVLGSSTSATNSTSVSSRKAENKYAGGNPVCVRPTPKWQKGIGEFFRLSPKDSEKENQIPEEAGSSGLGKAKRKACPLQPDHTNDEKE
- assayName: ELISA analysis of phage on DGI-2 polypeptide (specific binding)
- assayConditions: binding to DGI-2 polypeptide (specific binding); phage ELISA units read at 405 nm
Returns: string. Value is criterion met if measured DGI-2 (OD) is below 2 OD, and criterion not met if it is greater than or equal to it.

> print(dat)
                                  substance                cat
1  DGRGWGAMWMRWAEGLGADI (DGI-2-20R-4-G114; listed as Escherichia coli)  criterion not met
2  DGKHLTKWSGRGWWSAWVGG (DGI-2-20R-3-B12; listed as Escherichia coli)  criterion not met
3  HSGNRQSGSRRTHLLNIFCSSDTFVFPGWSAYLSRVCPGD (DGI-2-40F-3-B122; listed as Escherichia coli)      criterion met
4  CYLSRLFRSGQGIGQFGHVE (DGI-2-20F-PP-A82; listed as Escherichia coli)  criterion not met
5  VVGYAQGDGLEGGLGSSRDGS (DGI-2-20F-PP-D8; listed as Escherichia coli)  criterion not met
6  RWSICRGLQYSIPGCAVEDLSDVMA (DGI-2-20C-4-H316; listed as Escherichia coli)  criterion not met
7  KVWGCGARRGWERLGHLNQV (DGI-2-20F-PP-B10; listed as Escherichia coli)      criterion met
8  VLCLE#ALGLSGLGWRVVVGP (VLCLEALGLSGLGWRVVVGP; DGI-2-20F-PP-G4; listed as Escherichia coli)  criterion not met
